# Assay Overview: Microsomal stability assay, human liver microsomes
# Assay type: in vitro ADME
# Experimental Parameters: pH 7.4, 1 μM compound, 0.5 mg/mL protein, 37° C., read-out: HLM +/− NADPH: Clint (μL/min/mg protein)
Counter-ions that a name gives are not always drawn.
Attribute Measured: microsomal CLint at 1 μM

Some compounds with recorded microsomal CLint at 1 μM:
CC(C)(c1ccc(OCc2cn(S(C)(=O)=O)cn2)cc1)c1cc(Cl)c(OCCCCl)c(Cl)c1 [Compound A5] :: < 12 µL/min/mg
CC(C)(c1cc(Cl)c(OCCCl)c(Cl)c1)c1ccc(N2C(=O)N(S(C)(=O)=O)C(C)(C)C2=O)c(C#N)c1 [Compound B10] :: < 12 µL/min/mg
CSc1ncc(COc2ccc(C(C)(C)c3cc(Cl)c(OCCCl)c(Cl)c3)cc2)o1 [Compound A111] :: 12 to 48 µL/min/mg
CC(C)(c1ccc(OCc2nc(NS(C)(=O)=O)nc3c2CCC3)cc1)c1cc(Cl)c(OCCCl)c(C#N)c1 [Compound A202] :: < 12 µL/min/mg
C[C@@H](Oc1ccc(C(C)(C)c2cc(Cl)c(OCCCl)c(C#N)c2)cc1)c1ccnc(NS(C)(=O)=O)n1 (single isomer, unassigned) [Compound A169] :: < 12 µL/min/mg
CC(C)(c1ccc(OCc2ncc(S(C)(=O)=O)s2)cc1)c1cc(Cl)c(OCCCl)c(C#N)c1 [Compound A93] :: < 12 µL/min/mg

# evaluate next
// query Fill in: microsomal CLint at 1 μM of CC(C)(c1ccc(NCc2ocnc2S(C)(=O)=O)cc1)c1cc(Cl)c(OCCCl)c(Cl)c1 [Compound A32, Hydrochloride] is ___
// result 12 to 48 µL/min/mg
